molecular target: h-GABA-A α5β3γ2 (Homo sapiens, UniProt P18507+P31644); assay: Two-electrode voltage clamp electrophysiology in Xenopus laevis oocytes expressing GABAA receptors, modulation of GABA EC20 current; assay type: cell-based; design: host or cells: Xenopus laevis oocytes micro-injected with RNA transcripts of the subunits; settings: % modulation of GABA EC20 = 100*(Fold increase-1); Table 1
Sequence (P31644 32-462): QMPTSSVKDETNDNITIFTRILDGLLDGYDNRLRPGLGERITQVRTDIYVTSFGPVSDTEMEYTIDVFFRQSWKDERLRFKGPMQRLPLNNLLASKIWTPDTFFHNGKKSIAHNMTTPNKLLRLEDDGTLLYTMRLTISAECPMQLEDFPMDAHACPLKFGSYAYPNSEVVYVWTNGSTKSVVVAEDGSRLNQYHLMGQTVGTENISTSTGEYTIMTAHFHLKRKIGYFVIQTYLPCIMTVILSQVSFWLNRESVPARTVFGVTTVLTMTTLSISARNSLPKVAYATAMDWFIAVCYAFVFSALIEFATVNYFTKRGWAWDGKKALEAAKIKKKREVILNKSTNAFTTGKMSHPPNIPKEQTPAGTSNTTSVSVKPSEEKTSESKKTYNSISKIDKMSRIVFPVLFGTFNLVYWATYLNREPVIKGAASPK
Sequence (P28472 26-473 partner): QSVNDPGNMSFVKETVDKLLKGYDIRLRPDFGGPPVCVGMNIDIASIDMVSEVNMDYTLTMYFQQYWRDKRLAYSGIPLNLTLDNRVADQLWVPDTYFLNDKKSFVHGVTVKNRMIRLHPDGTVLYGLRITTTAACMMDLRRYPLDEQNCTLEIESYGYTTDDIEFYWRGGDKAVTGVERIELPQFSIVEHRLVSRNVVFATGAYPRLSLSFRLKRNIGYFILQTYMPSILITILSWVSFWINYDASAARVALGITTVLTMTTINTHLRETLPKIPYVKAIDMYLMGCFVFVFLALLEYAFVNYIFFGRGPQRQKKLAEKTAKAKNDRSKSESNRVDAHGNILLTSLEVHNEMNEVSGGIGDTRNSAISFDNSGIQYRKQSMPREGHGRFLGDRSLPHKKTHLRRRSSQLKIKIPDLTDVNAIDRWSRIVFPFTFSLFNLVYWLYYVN
Sequence (P18507 40-475): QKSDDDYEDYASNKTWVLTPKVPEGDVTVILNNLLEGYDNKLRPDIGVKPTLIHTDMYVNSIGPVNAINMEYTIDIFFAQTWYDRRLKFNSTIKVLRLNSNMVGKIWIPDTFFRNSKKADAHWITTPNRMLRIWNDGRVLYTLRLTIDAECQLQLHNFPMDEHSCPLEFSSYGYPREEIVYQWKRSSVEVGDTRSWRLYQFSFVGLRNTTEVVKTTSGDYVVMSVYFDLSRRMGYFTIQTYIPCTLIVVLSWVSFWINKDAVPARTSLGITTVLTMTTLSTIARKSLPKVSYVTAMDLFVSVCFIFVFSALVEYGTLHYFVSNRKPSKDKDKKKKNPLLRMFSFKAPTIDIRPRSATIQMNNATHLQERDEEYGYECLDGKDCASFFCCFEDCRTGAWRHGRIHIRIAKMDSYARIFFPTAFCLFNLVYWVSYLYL
Task for the reader: assign each of the following molecules its reported Efficacy (GABA) %.
Answer format: numeric, % implied, no suffix.

Reported Efficacy (GABA) % ( Cc1onc(-c2ncc(Cl)cc2F)c1Cn1ncc(N2CCN(C(=O)C3(C)CC3)CC2)cc1=O ) = 152

Cc1ccc(-c2noc(C)c2Cn2ncc(-c3cc(F)cnc3Cl)cc2=O)cn1 yielded Efficacy (GABA) % of 180

Value of measured Efficacy (GABA) % for the entry Cc1ccc(-c2noc(C)c2Cn2ncc(N3CC(OC4CC4)C3)cc2=O)cn1 : 96

get_value(item= CCn1nccc1C1CCN(c2cnn(Cc3c(-c4ccc(C)nc4)noc3C)c(=O)c2)CC1 , readout=Efficacy (GABA) %) returns 195

Summary for this molecule, Cc1ccc(-c2noc(C)c2Cn2ncc(N3CC[C@@H](OC(C)(C)C)C3)cc2=O)nn1 : Efficacy (GABA) % is 77

Efficacy (GABA) % recorded for this molecule, Cc1onc(-c2ccc(C(F)(F)F)nc2)c1Cn1ncc(N2CCN(C(=O)C3(C)CC3)CC2)cc1=O , is 250

Efficacy (GABA) % in this record for Cc1ccc(-c2noc(C)c2Cn2ncc(-c3cnn(C)c3)cc2=O)cn1 : 141

Entry Cc1ccc(-c2noc(C)c2Cn2ncc(-c3ccc4ncc(C)n4c3)cc2=O)cn1 , Efficacy (GABA) % reported as 84

###

target: h-GABA-A α5β3γ2 (Homo sapiens, UniProt P18507+P31644); assay: Two-electrode voltage clamp electrophysiology in Xenopus laevis oocytes expressing GABAA receptors, modulation of GABA EC20 current; format: cell-based; parameters: host or cells: Xenopus laevis oocytes micro-injected with RNA transcripts of the subunits; settings: % modulation of GABA EC20 = 100*(Fold increase-1); Table 1
REPORTED ENDPOINT: Efficacy (GABA) % (%)
Respond numerically; units are % and should not be typed.

Record Cc1ccc(-c2noc(C)c2Cn2ncc(N3CC4(C[C@@H](O)CO4)C3)cc2=O)cn1 [Example 132] . Reported Efficacy (GABA) %: 119

Item: Cc1cc(-c2noc(C)c2Cn2ncc(N3CC4(C3)CN(C3CC3)C4)cc2=O)no1 [Example 87] | Efficacy (GABA) %: 105

// field: Efficacy (GABA) %; key: Cc1ccc(-c2noc(C)c2Cn2ncc(-c3ccc(C(F)(F)F)cc3)cc2=O)cn1 [Example 83] ; value = 50

compound Cc1onc(-c2ccc(F)cc2)c1Cn1ncc(N2C[C@@H](C)O[C@@H](C)C2)cc1=O [Example 12] , Efficacy (GABA) % observed: 114

Recorded result, Cc1onc(-c2ccc(Cl)nc2)c1Cn1ncc(N2CC3(CCC(F)CO3)C2)cc1=O (single isomer, unassigned) [Example 298] , Efficacy (GABA) %: 116

Reported Efficacy (GABA) % ( Cc1ccc(-c2noc(C)c2Cn2ncc(N3CC(OCC(F)F)C3)cc2=O)cn1 [Example 206] ) = 144

// recorded Efficacy (GABA) % for Cc1ccc(-c2noc(C)c2Cn2ncc(N3CCC(C)(O)C3)cc2=O)cn1 (stereo not shown) [Example 118] : 210

The recorded Efficacy (GABA) % for entry Cc1onc(-c2ccc(Cl)nc2)c1Cn1ncc(N2CCC3(CCOCC3)CC2)cc1=O [Example 248] equals 107

Reported Efficacy (GABA) % ( Cc1ccc(-c2noc(C)c2Cn2ncc(N3CC4(C3)CC(F)(F)CO4)cc2=O)cn1 [Example 193] ) = 95

Noted for Cc1ccc(-c2noc(C)c2Cn2ncc(N3CCC(C)(O)CC3)cc2=O)cn1 [Example 119] : its Efficacy (GABA) % reads 138

// Efficacy (GABA) % value for CCOC1CN(c2cnn(Cc3c(-c4ccc(C)nn4)noc3C)c(=O)c2)C1 [Example 170] : 111

Summary for this compound, Cc1ccc(-c2noc(C)c2Cn2ncc(NC3CN(C4CC4)C3)cc2=O)cn1 [Example 96] : Efficacy (GABA) % is 132

Reported Efficacy (GABA) % ( CCO[C@H]1CN(c2cnn(Cc3c(-c4ccc(C)nc4)noc3C)c(=O)c2)[C@H]1C [Example 198] ) = 131

Lab note: measured Efficacy (GABA) % of Cc1onc(-c2ccc(Cl)cc2)c1Cn1ncc(N2CC3(CCCO3)C2)cc1=O [Example 162] was 40

// recorded Efficacy (GABA) % for Cc1ccc(-c2noc(C)c2Cn2ncc(N3CC4(CC(C(F)(F)F)CCO4)C3)cc2=O)nn1 (single isomer, unassigned) [Example 311] : 88

compound Cc1onc(-c2ccc(Cl)nc2)c1Cn1ncc(N2CC(OC3CCC3)C2)cc1=O [Example 253] , Efficacy (GABA) % observed: 156
